- Test system: HOP-62 NSCLC
- protocolText: NCI-60 one-dose screen, 48 h (100 = growth as untreated, 0 = no growth, -100 = all killed)
- measurementConditions: 10 µM unless noted
The panel holds about 83,000 compounds, 20% with a hit somewhere; the sample as a whole holds those more often. Calls of active or inactive are those of the source. The calls were made as follows: active = growth percent below 10; inactive = the rest.
testReadout: growth

**Query** For the molecule "COc1ccc(NC(=O)c2sc3nc(C)c(C(=O)CCc4cccc(OC)c4)cc3c2N)cc1" , what growth is on record?
**Result** 70.8% (inactive)

**Query** For the molecule "CC(=O)Nc1ccc(S(=O)(=O)NC2CCCCC2)cc1" , what growth is on record?
**Result** 96.3% (inactive)

**Query** For the molecule "O=[N+]([O-])c1cccc(-c2nc(-c3ccc(Cl)cc3Cl)cn2-c2ccccc2)c1" , what growth is on record?
**Result** -75.4% (active)

**Query** For the molecule "Cc1ccc2[nH]c(=O)cc(-n3nncc3COc3ccc(C=O)cc3)c2c1" , what growth is on record?
**Result** 101% (inactive)

**Query** For the molecule "C[C@@H]1CN(Cc2ccc(/C=C/c3n[nH]c4ccc5nc(-c6cn[nH]c6C(F)(F)F)c6c(c5c34)CCCC6)cc2)C[C@H](C)O1" , what growth is on record?
**Result** 36.7% (inactive)

***
**Query** For the molecule "COc1ccc(C(=O)c2cc3c(N)c(C(=O)Nc4cccc(Cl)c4C)sc3nc2C)cc1" , what growth is on record?
**Result** 29.1% (inactive)

**Query** For the molecule COc1ccc(C(O)c2cc3c(N)c(C(=O)Nc4ccc(Cl)cc4)sc3nc2C)cc1 (stereo not drawn) , what growth is on record?
**Result** 29.2% (inactive)

**Query** For the molecule O=C(OC(OC(=O)c1cc(Cl)cc(Cl)c1)c1cccc2ccccc12)c1ccccc1 (stereo not drawn) , what growth is on record?
**Result** 99.5% (inactive)

**Query** For the molecule "CC(=O)[C@@H]1CC[C@]2(C(=O)n3ccnc3)CC[C@]3(C)[C@H](CC[C@@H]4[C@@]5(C)Cc6c([nH]c7ccccc67)C(C)(C)[C@@H]5CC[C@]43C)[C@@H]12" , what growth is on record?
**Result** 95.7% (inactive)

**Query** For the molecule CC(Oc1ccc(C(=O)NS(=O)(=O)C(C)(C)C)cc1C(F)(F)F)c1ccc(Oc2ccccc2)cn1 (stereo not drawn) , what growth is on record?
**Result** 78.2% (inactive)

**Query** For the molecule "C=C(C)[C@@H]1CC[C@]2(C(=O)N3CCN(C)CC3)CC[C@]3(C)[C@H](CC[C@@H]4[C@@]5(C)CCC(=O)C(C)(C)[C@@H]5CC[C@]43C)[C@@H]12" , what growth is on record?
**Result** 86.4% (inactive)

**Query** For the molecule "Clc1nc(Cl)c2ncn(CC3(Cn4cnc5c(Cl)nc(Cl)nc54)COC3)c2n1" , what growth is on record?
**Result** -82.3% (active)

**Query** For the molecule "COc1ccc(C(=O)c2cc(C)c(OC)c(C)c2)c(OC)c1N(C(=O)C(Cl)Cl)C(=O)C(Cl)Cl" , what growth is on record?
**Result** 17.7% (inactive)

**Query** For the molecule "C=Cc1cc[n+](CCCCCCCCCCCC)cc1" , what growth is on record?
**Result** 111% (inactive)

###

- Test system: BT-549 breast
- protocolText: NCI-60 one-dose screen, 48 h (100 = growth as untreated, 0 = no growth, -100 = all killed)
- measurementConditions: 10 µM unless noted
This is part of a sample that, as a whole, favours compounds with a hit. Of some 83,000 tested, about 20% had one in any assay.
Criterion: growth meeting or surpassing 70%. Met: class 1. Not met: class 0.

Known results for compounds:
**Query** # bool: growth of "COc1cc2nc(-c3ccc(-c4nn[nH]n4)cc3)[nH]c(=O)c2cc1OC" >= 70%
**Result** class 1

**Query** # bool: growth of Clc1ccc(N2N=C(c3cccc(Nc4ccncc4)c3)CC2c2ccc3c(c2)OCO3)cc1 (centres undefined) >= 70%
**Result** class 1

**Query** # bool: growth of "C[C@]12CCc3nc(Nc4cccc(O)c4)sc3C1=CC[C@@H]1[C@@H]2CC[C@]2(C)/C(=N\NC(N)=S)CC[C@@H]12" >= 70%
**Result** class 0

***
**Query** # bool: growth of "O=C(Nc1nc(-c2ccccc2Cl)cs1)c1cc(-c2ccccc2)nc2ccc(Cl)cc12" >= 70%
**Result** class 0

**Query** # bool: growth of "O=C(Nc1ccc(Cl)cc1)Nc1ccc(Cl)c(Cl)c1" >= 70%
**Result** class 0

**Query** # bool: growth of "O=c1[nH]nc(-c2ccc(Br)cc2)cc1Cc1ccc(O)cc1" >= 70%
**Result** class 1

**Query** # bool: growth of CC(C)NC(=O)N1C(=O)CCC1NNC(=O)c1ccc([N+](=O)[O-])cc1 (centres undefined) >= 70%
**Result** class 1

**Query** # bool: growth of "O=[N+]([O-])c1cccc(-c2nc(-c3ccc(Cl)cc3Cl)cn2-c2ccccc2)c1" >= 70%
**Result** class 1

**Query** # bool: growth of "O=C(/C=C/c1ccc[nH]1)c1ccc(-n2ccc(C(F)(F)F)n2)cc1" >= 70%
**Result** class 0

**Query** # bool: growth of "COc1ccc(/C=C\c2nc3ccccc3s2)cc1OP(=O)(O)O" >= 70%
**Result** class 0

**Query** # bool: growth of "CCOC(=O)c1c(O)cc(-c2ccccc2)cc1-c1sc(N(C)Cc2ccccc2)nc1Cl" >= 70%
**Result** class 0

**Query** # bool: growth of "FC(F)(F)Oc1cccc(-c2cc(NCCCCCCNc3cc(-c4cccc(OC(F)(F)F)c4)nc4ccc(N5CCCC5)cc34)c3cc(N4CCCC4)ccc3n2)c1" >= 70%
**Result** class 1

**Query** # bool: growth of N#CC1=C(N)Oc2c(ccc3ccccc23)C1c1ccc([N+](=O)[O-])cc1 (centres undefined) >= 70%
**Result** class 1

**Query** # bool: growth of "c1ccc(-c2nn(-c3ccccc3)[n+](-c3cccc4ccccc34)n2)cc1" >= 70%
**Result** class 0

###

- Test system: SK-MEL-2 melanoma
- protocolText: NCI-60 one-dose screen, 48 h
- measurementConditions: 10 µM unless noted
This is part of a sample that, as a whole, favours compounds with a hit. Of some 83,000 tested, about 20% had one in any assay. Active and inactive are the calls of the source. Rule for the calls: active = growth percent below 10; inactive = the rest.
Answer with one of the outcomes true (1) for active, false (0) for inactive

Known results for molecules:
**Query** Just curious, what result did NC(=O)c1ncn(C2OC(CO)C(O)C2O)n1 (stereo unspecified) get here?
**Result** false (0)

**Query** Just curious, what result did "COc1ccc(/C=C(/c2ccccc2)[N+](=O)[O-])cc1" get here?
**Result** true (1)

**Query** Just curious, what result did "COc1ccc(-c2cnnc3c(-c4cccc(C(F)(F)F)c4)cnn23)cc1" get here?
**Result** false (0)

***
**Query** Just curious, what result did "COc1cnccc1-c1nc2ccc3[nH]ncc3c2c2c1CCCC2" get here?
**Result** false (0)

**Query** Just curious, what result did "COc1cc(NCCCN(CC(C)C)CC(C)C)c2ncccc2c1" get here?
**Result** false (0)

**Query** Just curious, what result did CC(C)Cc1ccc(C(C)C(=O)NCc2c[nH]c3ccc(Cl)cc23)cc1 (stereo unspecified) get here?
**Result** false (0)

**Query** Just curious, what result did "Cc1ccc(C(=O)Nc2ccccc2C(=O)N/N=C(\c2ccccc2)c2ccccn2)cc1" get here?
**Result** false (0)

**Query** Just curious, what result did "COc1ccc(-c2c(-c3ccccc3)noc2N)cc1OC" get here?
**Result** false (0)

**Query** Just curious, what result did "CCCCCCCCCCN=C(N)N=C(N)N" get here?
**Result** false (0)

**Query** Just curious, what result did CC(c1ccccc1)n1ccnc1CO (stereo unspecified) get here?
**Result** false (0)

**Query** Just curious, what result did "C=C1C(=O)O[C@H]2[C@H]1CC/C(COC(=O)/C=C/c1c[nH]c3ccccc13)=C\CC[C@@]1(C)O[C@@H]21" get here?
**Result** true (1)

###

- Test system: OVCAR-8 ovarian
- protocolText: NCI-60 one-dose screen, 48 h (100 = growth as untreated, 0 = no growth, -100 = all killed)
- measurementConditions: 10 µM unless noted
About 83,000 compounds went through this panel and 20% of them were active in at least one assay; those are over-represented in the sample as a whole.
Measured growth accompanies every entry in the list below.
Numeric answer only, unit % assumed.

**Query** OVCAR-8 ovarian / growth / "O=C1NC(=O)C(=Cc2cn(Cc3ccccn3)c3ccccc23)C(=O)N1" : value?
**Result** 101

**Query** OVCAR-8 ovarian / growth / "Cc1cc(NC(=O)c2cnc(N3CCN(CCOCCOCCOCCOCCC(=O)N[C@H](C(=O)N4C[C@H](O)C[C@H]4C(=O)N[C@@H](C)c4ccc(-c5scnc5C)cc4)C(C)(C)C)CC3)cn2)c2ncccc2c1" : value?
**Result** 20.7

**Query** OVCAR-8 ovarian / growth / "CC(C)Sc1nc(NN)c(C#N)c(-c2ccccc2)n1" : value?
**Result** 96.6

**Query** OVCAR-8 ovarian / growth / "COc1cc(-c2cc(=O)oc3cc(O)ccc23)c(OC)c2c1OCO2" : value?
**Result** 91.6

**Query** OVCAR-8 ovarian / growth / "COc1ccc(-c2nc(N/N=C/c3ccco3)nc(N3CCOCC3)c2C#N)cc1" : value?
**Result** 88.6

**Query** OVCAR-8 ovarian / growth / "CC(=O)c1c[nH]c2ccc(-c3ccnc(Nc4ccc(NC(=O)C5CCCC5)c(CN5CCOCC5)c4)n3)cc12" : value?
**Result** 7.02

**Query** OVCAR-8 ovarian / growth / "Cc1cc(C)c(C=O)c(C)c1" : value?
**Result** 94.2

The origin of these recorded values is PubChem BioAssay (NCI).
